system: SNB-75 CNS; experiment: NCI-60 one-dose screen, 48 h; settings: 10 µM unless noted
The panel holds about 83,000 compounds, 20% with a hit somewhere; the sample as a whole holds those more often. Activity calls are given as the source filed them. The calls were made as follows: active = growth percent below 10; inactive = the rest.
Pick one and only one: label 1 for active, label 0 for inactive

Answered cases to consult:
**Q:** Recorded test call requested for `CC/C(Cc1ccccc1)=C(\c1ccc(OCCN2CCCCCC2)cc1)c1ccc(OC(=O)NCc2ccccc2)cc1`
**A:** label 0

**Q:** Recorded test call requested for `CCSC1=CC(=O)c2ccccc2C1=O`
**A:** label 0

**Q:** Recorded test call requested for `COc1ccc(/C=C/C(=O)c2cc3c(N)c(C(=O)Nc4ccccc4C)sc3nc2C)cc1`
**A:** label 1

Next:
**Q:** Recorded test call requested for `CCOC(=O)Nc1nc2ccc(SCC(C)C)cc2s1`
**A:** label 0

**Q:** Recorded test call requested for `CC(=O)c1c(Nc2ccc(F)c(F)c2F)[nH]c2c(F)cc(F)cc2c1=O`
**A:** label 1

**Q:** Recorded test call requested for `COc1ccc(-c2nnc(SCC(=O)Nc3ccc(/C(C)=N\O)cc3)n2-c2ccccc2)cc1OC`
**A:** label 1

**Q:** Recorded test call requested for `CCCCCCCCn1ccc2cc(NC(=O)Cn3cc(CN4CCOCC4)nn3)ccc21`
**A:** label 0

**Q:** Recorded test call requested for `CCn1cc(C2=C(c3cn(C)c4ncccc34)C(=O)NC2=O)c2cccnc21`
**A:** label 1

**Q:** Recorded test call requested for `COc1cc2oc(-c3cccc(NC(=O)c4ccc5c(c4)OCO5)c3)cc(=O)c2c(OC)c1OC`
**A:** label 0

* * *

tested on: SNB-75 CNS; assay: NCI-60 one-dose screen, 48 h; conditions: 10 µM unless noted
The panel holds about 83,000 compounds, 20% with a hit somewhere; the sample as a whole holds those more often. Calls of active or inactive are those of the source. The calls were made as follows: active = growth percent below 10; inactive = the rest.
Pick one and only one: Yes (active), No (inactive)

**Q:** Recorded test call requested for `CCOC(=O)c1c(C)c2c(n1C)CSc1cc(S(=O)(=O)c3ccccc3)c(=O)[nH]c1-2`
**A:** No

**Q:** Recorded test call requested for `COc1ccccc1NC(=O)c1ccc(/C=C/C(=O)c2nccn2C)cc1`
**A:** Yes

**Q:** Recorded test call requested for CCN(CC)CCCC(C)Nc1ccc2cc(OC)ccc2n1 (stereo unspecified)
**A:** No

**Q:** Recorded test call requested for `C/C(=C(/c1ccc(Cl)cc1)c1ccc(OCCCN(C)C)cc1)c1ccc(Cl)cc1`
**A:** No

**Q:** Recorded test call requested for `Cn1cc(C(=O)c2nc(-c3c[nH]c4ccc(Br)cc34)no2)c2cc(Br)ccc21`
**A:** No

**Q:** Recorded test call requested for `COc1ccc(-c2cn(-c3ccc(Cl)cc3)c(SCC(=O)c3ccc([N+](=O)[O-])cc3)n2)cc1`
**A:** No

Next:
**Q:** Recorded test call requested for `CC(C)(CO)N(CCO)CCO`
**A:** No

**Q:** Recorded test call requested for `Nc1c(C(=O)Nc2cccc3ncccc23)sc2nc3c(cc12)C(=O)CCC3`
**A:** No

**Q:** Recorded test call requested for `CN1CCN(Cc2ccc(NC(=O)c3cncc(C#Cc4cncc5[nH]ncc45)c3)cc2C(F)(F)F)CC1`
**A:** No

**Q:** Recorded test call requested for `O=c1nc(Nc2nc3ccccc3s2)[nH]c(=O)c2ccccc12`
**A:** No

**Q:** Recorded test call requested for `N#C/C(=C\c1ccc(Cl)cc1Cl)C(=O)Nc1ncc(Cc2ccc(Cl)c(Cl)c2)s1`
**A:** No

**Q:** Recorded test call requested for `O=C1N[C@@H]2[C@@H](O)[C@@H](O)[C@H](O)C[C@H]2c2cc3c(c(O)c21)OCCO3`
**A:** Yes

**Q:** Recorded test call requested for CC1COCC(C)N1C1=C(Cl)C(=O)c2ccccc2C1=O (stereo unspecified)
**A:** No

**Q:** Recorded test call requested for `N#C/C(=C\c1ccc(-c2ccc(Cl)cc2)o1)c1ccc(Cl)cc1`
**A:** No

**Q:** Recorded test call requested for `COc1ccc(-c2ccc(-c3ccc(C(=N)N)cn3)s2)cc1`
**A:** No

**Q:** Recorded test call requested for `Oc1c(CN2CCCC2)cc(COCc2ccccc2)c2cccnc12`
**A:** No

**Q:** Recorded test call requested for `O=C(Cn1nnc([N+](=O)[O-])n1)c1ccccc1`
**A:** No

**Q:** Recorded test call requested for `COc1cc(-c2nc3occn3c2-c2ccnc(NCCCNS(=O)(=O)c3ccccc3)n2)ccc1F`
**A:** No

**Q:** Recorded test call requested for CCOC(=O)c1c(C)nn(CC(O)c2ccccc2)c1NC(=O)Nc1cccc(F)c1 (stereo unspecified)
**A:** No

**Q:** Recorded test call requested for `CN1CCCc2cc(/C=C3/SC(=S)N(CCc4ccc(O)cc4)C3=O)ccc21`
**A:** No

**Q:** Recorded test call requested for `O=C(CCCCNC(=O)c1cc(=O)c(O)co1)Nc1ccccc1`
**A:** No

**Q:** Recorded test call requested for `CN(C)c1ccc(-c2cc(-c3ccc(Nc4nc(Nc5ccc(Cl)cc5)nc(Nc5ccc(Cl)cc5)n4)cc3)nc(N)c2C#N)cc1`
**A:** No

**Q:** Recorded test call requested for COc1cc2c(c(OC)c1OC)C(=O)CC(c1cccc(NC(=O)c3ccccc3Br)c1)O2 (stereo unspecified)
**A:** No

**Q:** Recorded test call requested for `COc1ccc2cc(Cn3cc[n+](Cc4ccc5ccccc5c4)c3)ccc2c1`
**A:** No

**Q:** Recorded test call requested for `CCCCCCNc1nc(NCCCCCC)c2[nH]c(NCCCCCC)nc2n1`
**A:** Yes

**Q:** Recorded test call requested for `Cc1nc2ccccc2c(/C=C/c2ccc(C(F)(F)F)cc2)c1C(=O)/C=C/c1ccccc1`
**A:** No

Cited source for all entries: PubChem BioAssay (NCI)
